Test system: MEL-JUSO
procedure_details: cells
Type: functional, cell-based
details: Homo sapiens
Description: SANGER: Inhibition of human MEL-JUSO cell growth in a cell viability assay.
Listing of entries alongside the reported IC50.
Value expressed in nM; do not type the unit.

>  <compound>
Fc1cc(-c2cc[nH]/c(=N/c3ccc(-n4cnc(N5CCOCC5)n4)cc3)n2)cc(N2CCOCC2)c1

>  <tested_target>
MEL-JUSO;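 also: growth inhibition of human MEL-JUSO cells, read out with a cell viability assay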

>  <data_value>
286

$$$$

Please find the next compound below.
Input line: Please give the documented IC50 of CC[C@]1(O)C[C@@H]2CN(CCc3c([nH]c4ccccc34)[C@@](C(=O)OC)(c3cc4c(cc3OC)N(C)[C@H]3[C@@](O)(C(=O)OC)[C@H](OC(C)=O)[C@]5(CC)C=CCN6CC[C@]43[C@@H]65)C2)C1 [VINBLASTINE]
Output line: 17.5

Where do these numbers come from? They come from ChEMBL document CHEMBL1201861.
